# Experimental system: T1, human IL-17A (human, UniProt Q16552 20-155, limits assumed)
# T1 construct: Bought from R&D Systems; also called IL-17 antigen (human IL17A)
# T1 sequence (looked up): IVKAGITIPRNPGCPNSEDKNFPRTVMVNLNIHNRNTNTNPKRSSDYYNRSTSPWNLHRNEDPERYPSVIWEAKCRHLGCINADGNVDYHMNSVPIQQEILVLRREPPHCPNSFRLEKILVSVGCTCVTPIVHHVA
# Assay explanation: BLI (Octet Red96), antibody captured on AHC biosensor, human IL-17A in solution, 1:1 model, 25 C
pKd: −log10 of the molar value.
Endpoint: pKd

# annotated cases, reported pKd shown
- Binder: "PP10765 (antibody, human IgG4 S228P, kappa, V domains shown, Humanized, human IgG4/kappa; also called VH6666/VL6667) VH: EVQLVESGGGLVQPGGSLRLSCAASGFTFSTYGMSWVRQAPGKGLELVAIINHNGGSTFYPDSVKGRFTVSRDNSKNTLYLQMNSLRAEDTAVYYCARDPRHDGYFFDYWGQGTLVTVSS VL: DIQMTQSPSSLSASVGDRVTITCRASEDIYDRLAWYQQKPGKAPNLLVSGATSLESGVPSRFSGSGSGKDYTLTISSLQPEDFATYYCQQYWSVPWTFGGGTKVEIKR"
  pKd: 9.89
- Binder: "PP10762 (antibody, human IgG4 S228P, kappa, V domains shown, Humanized, human IgG4/kappa; also called VH6665/VL6667) VH: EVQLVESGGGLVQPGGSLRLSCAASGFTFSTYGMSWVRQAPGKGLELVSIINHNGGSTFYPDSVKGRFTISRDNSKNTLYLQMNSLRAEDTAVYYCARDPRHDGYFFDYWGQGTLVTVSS VL: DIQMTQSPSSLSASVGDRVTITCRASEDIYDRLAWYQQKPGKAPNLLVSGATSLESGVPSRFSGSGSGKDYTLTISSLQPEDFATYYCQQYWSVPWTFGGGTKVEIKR"
  pKd: "> 12.00"
- Binder: "PP10767 (antibody, human IgG4 S228P, kappa, V domains shown, Humanized, human IgG4/kappa; also called VH6667/VL6666) VH: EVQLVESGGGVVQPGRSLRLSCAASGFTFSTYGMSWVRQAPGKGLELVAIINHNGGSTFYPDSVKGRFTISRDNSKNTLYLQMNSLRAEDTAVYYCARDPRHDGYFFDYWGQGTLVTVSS VL: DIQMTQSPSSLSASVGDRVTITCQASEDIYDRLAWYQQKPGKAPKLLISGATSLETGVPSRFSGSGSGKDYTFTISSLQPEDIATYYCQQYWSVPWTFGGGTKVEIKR"
  pKd: "> 12.00"

Please examine the following record next.
Field pKd (entry PP10768 (antibody, human IgG4 S228P, kappa, V domains shown, Humanized, human IgG4/kappa; also called VH6667/VL6667) VH: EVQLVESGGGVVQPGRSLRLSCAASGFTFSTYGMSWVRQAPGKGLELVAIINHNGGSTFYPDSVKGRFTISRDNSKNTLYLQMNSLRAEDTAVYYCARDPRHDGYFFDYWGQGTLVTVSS VL: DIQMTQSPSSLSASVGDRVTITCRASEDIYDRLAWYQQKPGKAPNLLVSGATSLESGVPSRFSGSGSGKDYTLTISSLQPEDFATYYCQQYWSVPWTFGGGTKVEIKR ) reads > 12.00

These data points were gathered from patent US20210309735A1.
